# protocol.details: 24 h urinary excretion of isoflavone derivatives after oral administration to ovariectomized rats
# Set-up: species or system Sprague-Dawley rats
# test.context: in vivo, rat, 24 h urine on day before final administration, Means ± S.D., a: significantly different from nonclathrated (1%), read-out: Urinary Excretion Rate
quantity.measured: dose excreted at 24 h (%)
One number for each entry, in %.

Look up dose excreted at 24 h: O=c1c(-c2ccc(O)cc2)coc2cc(O[C@@H]3O[C@H](CO)[C@@H](O)[C@H](O)[C@H]3O)ccc12 [daidzin] 9.3

###

# protocol.details: Serum (blood) level of isoflavone derivatives after oral administration to ovariectomized rats
# Design: species or system Sprague-Dawley rats
# test.context: in vivo, heading: Blood Level, rat serum, oral, 4 hours after the final administration, Means ± S.D., a: significantly different from nonclathrated (1%)
quantity.measured: concentration at 4 h

Look up concentration at 4 h: O=c1c(-c2ccc(O)cc2)coc2cc(O[C@@H]3O[C@H](CO)[C@@H](O)[C@H](O)[C@H]3O)ccc12 840 ng/mL
